- assayed-system: hCA III (Homo sapiens)
- Construct: made in house
- Sequence (P07451 whole entry): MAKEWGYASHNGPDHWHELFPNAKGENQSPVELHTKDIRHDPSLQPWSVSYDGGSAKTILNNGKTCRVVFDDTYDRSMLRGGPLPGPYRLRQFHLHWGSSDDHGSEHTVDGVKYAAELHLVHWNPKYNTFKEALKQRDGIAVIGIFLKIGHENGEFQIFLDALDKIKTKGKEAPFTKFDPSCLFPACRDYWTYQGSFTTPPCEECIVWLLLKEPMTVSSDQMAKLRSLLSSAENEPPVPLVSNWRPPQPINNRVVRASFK
- method: Stopped-Flow CO2 hydrase assay, hCA III
- Format: biochemical
- measurement-conditions: ratio of KI hCA II to KI hCA III
measured-parameter: Selectivity Index (SI) hCA II/hCA III

>>> endpoint_value("COc1ccc(OCc2cn(CCCCS(N)(=O)=O)nn2)cc1")
5.8
>>> endpoint_value("NS(=O)(=O)CCCn1cc(CNC(=O)Nc2ccc(C(F)(F)F)cc2)nn1")
4.2
>>> endpoint_value("CCOC(=O)c1ccc(NC(=O)NCc2cn(CCCS(N)(=O)=O)nn2)cc1")
4.6
>>> endpoint_value("Cc1ccc(NC(=O)NCc2cn(CCCCS(N)(=O)=O)nn2)cc1")
5.3
>>> endpoint_value("NS(=O)(=O)CCCn1cc(COc2ccccc2)nn1")
4.2
>>> endpoint_value("Cc1ccc(NC(=O)NCc2cn(CCCS(N)(=O)=O)nn2)cc1")
3.8
>>> endpoint_value("NS(=O)(=O)CCCn1cc(COc2ccc(F)cc2)nn1")
2.8

* * *

- assayed-system: hCA VA (Homo sapiens)
- Construct: made in house
- Sequence (P35218 39-305): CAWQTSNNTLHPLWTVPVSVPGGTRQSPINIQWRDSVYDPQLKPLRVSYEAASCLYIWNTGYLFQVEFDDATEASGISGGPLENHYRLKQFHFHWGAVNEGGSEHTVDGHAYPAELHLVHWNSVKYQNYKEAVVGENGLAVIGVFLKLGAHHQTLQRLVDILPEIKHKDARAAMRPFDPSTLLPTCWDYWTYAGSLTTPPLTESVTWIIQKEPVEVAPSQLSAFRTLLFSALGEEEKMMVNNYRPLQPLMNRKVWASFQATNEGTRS
- method: Stopped-Flow CO2 hydrase assay, hCA VA
- Format: biochemical
- measurement-conditions: stopped-flow CO2 hydrase, mean from 3 assays, errors ± 5–10%; read-out: KI hCA VA
pKi: −log10 of the molar value.
The reader will find reported pKi values listed item by item below.
measured-parameter: pKi

>>> endpoint_value("COc1cccc(NC(=O)NCc2cn(CCCS(N)(=O)=O)nn2)c1 [Compound 35]")
5.69
>>> endpoint_value("NS(=O)(=O)CCCCn1cc(COc2ccccc2)nn1 [Compound 40]")
5.11
>>> endpoint_value("NS(=O)(=O)CCCCn1cc(CNC(=O)Nc2ccc(C(F)(F)F)cc2)nn1 [Compound 46]")
5.74
>>> endpoint_value("COc1cccc(NC(=O)NCc2cn(CCCCS(N)(=O)=O)nn2)c1 [Compound 48]")
5.38
>>> endpoint_value("NS(=O)(=O)CCCCn1cc(COc2ccc(F)cc2)nn1 [Compound 41]")
5.36
>>> endpoint_value("Cc1ccc(NC(=O)NCc2cn(CCCS(N)(=O)=O)nn2)cc1 [Compound 32]")
5.06
>>> endpoint_value("NS(=O)(=O)CCCn1cc(CNC(=O)Nc2ccc(F)cc2)nn1 [Compound 31]")
5.24
>>> endpoint_value("NS(=O)(=O)CCCn1cc(CNC(=O)Nc2ccc(C(F)(F)F)cc2)nn1 [Compound 33]")
5.15
>>> endpoint_value("CCOC(=O)c1ccc(NC(=O)NCc2cn(CCCS(N)(=O)=O)nn2)cc1 [Compound 34]")
5.58

* * *

- assayed-system: hCA IV (Homo sapiens)
- Construct: made in house
- Sequence (P22748 19-312): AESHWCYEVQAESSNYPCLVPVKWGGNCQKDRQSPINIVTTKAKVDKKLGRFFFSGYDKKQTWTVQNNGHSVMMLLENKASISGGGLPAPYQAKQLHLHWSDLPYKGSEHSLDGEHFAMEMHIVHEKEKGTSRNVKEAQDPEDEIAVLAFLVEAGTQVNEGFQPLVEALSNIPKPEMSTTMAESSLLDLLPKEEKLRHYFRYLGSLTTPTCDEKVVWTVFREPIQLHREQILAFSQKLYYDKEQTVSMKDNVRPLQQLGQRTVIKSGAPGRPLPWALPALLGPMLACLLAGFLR
- method: Stopped-Flow CO2 hydrase assay, hCA IV
- Type: biochemical
- measurement-conditions: mean from 3 assays, errors ± 5–10%
Catalogue of Ki values
measured-parameter: Ki (µM)

>>> endpoint_value("Cc1ccc(NC(=O)NCc2cn(CCCS(N)(=O)=O)nn2)cc1 [Compound 32]")
6.16
>>> endpoint_value("NS(=O)(=O)CCCn1cc(CNC(=O)Nc2ccc(C(F)(F)F)cc2)nn1 [Compound 33]")
0.875
>>> endpoint_value("NS(=O)(=O)CCCCn1cc(COc2ccc(F)cc2)nn1 [Compound 41]")
5.51

* * *

Each entry below carries its recorded melting point.
measured-parameter: melting point

>>> endpoint_value("COc1ccc(OCc2cn(CCCCS(N)(=O)=O)nn2)cc1")
"251 to 253 °C"
>>> endpoint_value("COc1cccc(NC(=O)NCc2cn(CCCS(N)(=O)=O)nn2)c1")
"214 to 215 °C"
>>> endpoint_value("CCOC(=O)c1ccc(NC(=O)NCc2cn(CCCS(N)(=O)=O)nn2)cc1")
"239 to 241 °C"
>>> endpoint_value("COc1ccc(NC(=O)NCc2cn(CCCCS(N)(=O)=O)nn2)c(C)c1")
"282 to 285 °C"
>>> endpoint_value("COc1cccc(OCc2cn(CCCCS(N)(=O)=O)nn2)c1")
"186 to 188 °C"

* * *

Ki, hCA IV (Homo sapiens), per-entry values.
measured-parameter: Ki (µM)

>>> endpoint_value("NS(=O)(=O)CCCCn1cc(COc2ccccc2)nn1 [Compound 40]")
3.61
>>> endpoint_value("COc1ccc(OCc2cn(CCCCS(N)(=O)=O)nn2)cc1 [Compound 42]")
5.61
>>> endpoint_value("CCOC(=O)c1ccc(NC(=O)NCc2cn(CCCS(N)(=O)=O)nn2)cc1 [Compound 34]")
4.46
>>> endpoint_value("NS(=O)(=O)CCCCn1cc(CNC(=O)Nc2ccc(F)cc2)nn1 [Compound 44]")
2.92
>>> endpoint_value("NS(=O)(=O)CCCCn1cc(CNC(=O)Nc2ccc(C(F)(F)F)cc2)nn1 [Compound 46]")
3.59

* * *

- assayed-system: hCA III (Homo sapiens)
- Construct: made in house
- method: Stopped-Flow CO2 hydrase assay, hCA III
- Format: biochemical
- measurement-conditions: ratio of KI hCA I to KI hCA III
We use 10 as the dividing line for Selectivity Index (SI) hCA I/hCA III: on or above the line is 1, below is 0.

>>> answer_label("NS(=O)(=O)CCCCn1cc(CNC(=O)Nc2ccc(F)cc2)nn1")
0
>>> answer_label("COc1cccc(OCc2cn(CCCCS(N)(=O)=O)nn2)c1")
0
>>> answer_label("COc1cccc(OCc2cn(CCCS(N)(=O)=O)nn2)c1")
0
>>> answer_label("NS(=O)(=O)CCCCn1cc(COc2ccc(F)cc2)nn1")
1
>>> answer_label("CCOC(=O)c1ccc(NC(=O)NCc2cn(CCCCS(N)(=O)=O)nn2)cc1")
1
>>> answer_label("NS(=O)(=O)CCCCn1cc(COc2ccccc2)nn1")
0
>>> answer_label("NS(=O)(=O)CCCCn1cc(CNC(=O)Nc2ccc(C(F)(F)F)cc2)nn1")
0
>>> answer_label("NS(=O)(=O)CCCn1cc(COc2ccc(F)cc2)nn1")
0
>>> answer_label("Cc1ccc(NC(=O)NCc2cn(CCCCS(N)(=O)=O)nn2)cc1")
0
>>> answer_label("COc1cccc(NC(=O)NCc2cn(CCCCS(N)(=O)=O)nn2)c1")
1
>>> answer_label("COc1ccc(OCc2cn(CCCS(N)(=O)=O)nn2)cc1")
0
>>> answer_label("CCOC(=O)c1ccc(NC(=O)NCc2cn(CCCS(N)(=O)=O)nn2)cc1")
1

* * *

Ki tested on hCA I (Homo sapiens): recorded values
Sequence (P00915 whole entry): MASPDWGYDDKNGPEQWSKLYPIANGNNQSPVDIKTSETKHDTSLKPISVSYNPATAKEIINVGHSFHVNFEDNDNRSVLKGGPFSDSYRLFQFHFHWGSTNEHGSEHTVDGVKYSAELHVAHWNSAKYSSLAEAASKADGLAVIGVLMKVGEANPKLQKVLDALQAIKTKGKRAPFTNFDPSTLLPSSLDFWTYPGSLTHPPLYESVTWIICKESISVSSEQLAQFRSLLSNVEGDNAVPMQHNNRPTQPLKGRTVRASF
measured-parameter: Ki (µM)

>>> endpoint_value("NS(=O)(=O)CCCCn1cc(COc2ccc(F)cc2)nn1")
6.43
>>> endpoint_value("COc1ccc(OCc2cn(CCCCS(N)(=O)=O)nn2)cc1")
8.54
>>> endpoint_value("COc1cccc(OCc2cn(CCCCS(N)(=O)=O)nn2)c1")
2.32
>>> endpoint_value("NS(=O)(=O)CCCCn1cc(CNC(=O)Nc2ccc(F)cc2)nn1")
5.38
>>> endpoint_value("NS(=O)(=O)CCCn1cc(COc2ccc(F)cc2)nn1")
4.89
>>> endpoint_value("COc1cccc(OCc2cn(CCCS(N)(=O)=O)nn2)c1")
1.91

* * *

Measured pKi values are reported for all entries that follow.
- assayed-system: hCA VII (Homo sapiens)
- Sequence (P43166 whole entry): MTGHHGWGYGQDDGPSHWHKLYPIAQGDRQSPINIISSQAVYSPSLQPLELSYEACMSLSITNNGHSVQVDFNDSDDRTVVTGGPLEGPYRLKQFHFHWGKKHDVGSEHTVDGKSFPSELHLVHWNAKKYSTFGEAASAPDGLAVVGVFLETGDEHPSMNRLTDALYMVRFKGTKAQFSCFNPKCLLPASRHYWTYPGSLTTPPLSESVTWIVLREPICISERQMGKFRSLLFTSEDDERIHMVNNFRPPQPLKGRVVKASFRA
pKi: −log10 of the molar value.
measured-parameter: pKi

>>> endpoint_value("COc1cccc(OCc2cn(CCCCS(N)(=O)=O)nn2)c1")
5.44
>>> endpoint_value("Cc1ccc(NC(=O)NCc2cn(CCCS(N)(=O)=O)nn2)cc1")
5.36
>>> endpoint_value("NS(=O)(=O)CCCn1cc(COc2ccc(F)cc2)nn1")
5.36
>>> endpoint_value("CCOC(=O)c1ccc(NC(=O)NCc2cn(CCCS(N)(=O)=O)nn2)cc1")
5.64
>>> endpoint_value("Cc1ccc(NC(=O)NCc2cn(CCCCS(N)(=O)=O)nn2)cc1")
5.25
>>> endpoint_value("NS(=O)(=O)CCCCn1cc(COc2ccccc2)nn1")
5.12
>>> endpoint_value("NS(=O)(=O)CCCn1cc(CNC(=O)Nc2ccc(F)cc2)nn1")
5.34
>>> endpoint_value("COc1cccc(OCc2cn(CCCS(N)(=O)=O)nn2)c1")
5.33
>>> endpoint_value("CCOC(=O)c1ccc(NC(=O)NCc2cn(CCCCS(N)(=O)=O)nn2)cc1")
5.71
>>> endpoint_value("NS(=O)(=O)CCCCn1cc(CNC(=O)Nc2ccc(F)cc2)nn1")
5.48
>>> endpoint_value("NS(=O)(=O)CCCn1cc(CNC(=O)Nc2ccc(C(F)(F)F)cc2)nn1")
5.27

* * *

- assayed-system: hCA III (Homo sapiens)
- Construct: made in house
- method: Stopped-Flow CO2 hydrase assay, hCA III
- Type: biochemical
- measurement-conditions: stopped-flow CO2 hydrase, mean from 3 assays, errors ± 5–10%
measured-parameter: Ki (nM)

>>> endpoint_value("NS(=O)(=O)CCCn1cc(CNC(=O)Nc2ccc(C(F)(F)F)cc2)nn1 [Compound 33]")
989
>>> endpoint_value("NS(=O)(=O)CCCCn1cc(COc2ccc(F)cc2)nn1 [Compound 41]")
618
>>> endpoint_value("COc1cccc(OCc2cn(CCCCS(N)(=O)=O)nn2)c1 [Compound 43]")
444
>>> endpoint_value("COc1cccc(OCc2cn(CCCS(N)(=O)=O)nn2)c1 [Compound 30]")
345
>>> endpoint_value("Cc1ccc(NC(=O)NCc2cn(CCCS(N)(=O)=O)nn2)cc1 [Compound 32]")
772
>>> endpoint_value("NS(=O)(=O)CCCCn1cc(CNC(=O)Nc2ccc(C(F)(F)F)cc2)nn1 [Compound 46]")
553
>>> endpoint_value("Cc1ccc(NC(=O)NCc2cn(CCCCS(N)(=O)=O)nn2)cc1 [Compound 45]")
930
>>> endpoint_value("CCOC(=O)c1ccc(NC(=O)NCc2cn(CCCS(N)(=O)=O)nn2)cc1 [Compound 34]")
547
>>> endpoint_value("NS(=O)(=O)CCCCn1cc(CNC(=O)Nc2ccc(F)cc2)nn1 [Compound 44]")
599
>>> endpoint_value("COc1ccc(OCc2cn(CCCCS(N)(=O)=O)nn2)cc1 [Compound 42]")
676
>>> endpoint_value("NS(=O)(=O)CCCn1cc(CNC(=O)Nc2ccc(F)cc2)nn1 [Compound 31]")
826
>>> endpoint_value("COc1ccc(OCc2cn(CCCS(N)(=O)=O)nn2)cc1 [Compound 29]")
554
>>> endpoint_value("CCOC(=O)c1ccc(NC(=O)NCc2cn(CCCCS(N)(=O)=O)nn2)cc1 [Compound 47]")
493
>>> endpoint_value("NS(=O)(=O)CCCCn1cc(COc2ccccc2)nn1 [Compound 40]")
818
>>> endpoint_value("COc1cccc(NC(=O)NCc2cn(CCCCS(N)(=O)=O)nn2)c1 [Compound 48]")
476
>>> endpoint_value("NS(=O)(=O)CCCn1cc(COc2ccc(F)cc2)nn1 [Compound 28]")
728
>>> endpoint_value("NS(=O)(=O)CCCn1cc(COc2ccccc2)nn1 [Compound 27]")
654
>>> endpoint_value("COc1cccc(NC(=O)NCc2cn(CCCS(N)(=O)=O)nn2)c1 [Compound 35]")
786
